metric: melting point

compound	experimental-result
CCc1cn2cc(-c3cc(=O)n4cc(N5CCNCC5)ccc4n3)ccc2n1 [Compound 124]	228 to 232 °C
C[C@@H]1CN(c2ccc3nc(-c4ccc5c(cnn5C)c4)cc(=O)n3c2)C[C@H](C)N1 [Compound 552]	240 to 242 °C
COc1ccc(-c2ccc3nc(N4CCNCC4)cc(=O)n3c2)cc1F [Cpd 220]	202 to 206 °C
COc1ccc(-c2cc(=O)n3cc(N4C[C@@H]5CCN(C)[C@@H]5C4)ccc3n2)cc1F [Compound 280]	207 to 211 °C
Cc1cn2nc(-c3cc(=O)n4cc(N5CCN(C)[C@@H](C)C5)cc(C)c4n3)cc2c(C)n1 [Compound 563]	244 to 253 °C
Cn1ncc2cc(-c3cc(=O)n4cc(C5=CCNCC5)ncc4n3)ccc21 [Compound 505]	228 to 230 °C

Query :: Look up melting point: CCN1CCN(c2ccc3nc(-c4ccc5nc(C)oc5c4)cc(=O)n3c2)CC1 [Compound 202]
Result :: 212 to 216 °C

Query :: Field request: melting point | item: C[C@@H]1CN(c2ccc3nc(-c4ccc5c(c4)OCCO5)cc(=O)n3c2)CCN1 [Compound 35]
Result :: 212 to 214 °C
